Please provide measured Percent Effect for the entries that follow.
- test.target: Sialic acid-binding Ig-like lectin 9 (Homo sapiens) (UniProt Q9Y336)
- Sequence (Q9Y336 whole entry): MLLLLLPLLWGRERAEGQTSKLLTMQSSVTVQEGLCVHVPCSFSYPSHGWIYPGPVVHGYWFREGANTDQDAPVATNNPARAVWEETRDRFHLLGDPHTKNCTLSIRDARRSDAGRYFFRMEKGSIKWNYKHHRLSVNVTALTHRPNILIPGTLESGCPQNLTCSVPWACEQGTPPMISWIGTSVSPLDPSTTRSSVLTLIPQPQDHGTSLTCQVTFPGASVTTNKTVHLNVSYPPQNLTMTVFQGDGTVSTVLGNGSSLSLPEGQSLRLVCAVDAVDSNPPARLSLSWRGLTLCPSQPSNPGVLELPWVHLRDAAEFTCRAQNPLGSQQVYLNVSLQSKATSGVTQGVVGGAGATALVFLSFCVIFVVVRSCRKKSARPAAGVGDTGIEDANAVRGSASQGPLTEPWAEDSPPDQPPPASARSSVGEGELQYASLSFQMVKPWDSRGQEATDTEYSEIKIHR
- experimental.details: Hs-Siglec9 ALPHAscreen SOP 20170721
- Parameters: scale not given: direction of the effect not stated beside the values
- settings: 10 µM
Give bare numbers, in %.

Worked cases, Percent Effect given:
INSERT INTO measurements (compound, observed) VALUES
  ('CCOc1ccc(NC(=O)CN2CCN(c3nccn3C)CC2)cc1', -1.93),
  ('Cc1ccc(-c2nc(CN3CCC(C(=O)N(C)C)CC3)cs2)o1', -4.8),
  ('Cc1nc(C)n(CC2CCCN(Cc3nnc(-c4ccco4)o3)C2)n1 (stereo unspecified)', -2.45),
  ('c1ccc(Oc2cc(CNCC3CNc4ccnn4C3)ccn2)cc1 (stereo unspecified)', -0.022),
  ('CCCn1[nH]cc/c1=N\C(=O)CN1CCn2c(nnc2C2CC2)C1', -5.47);

Could you now consider this next compound?
Can you share its Percent Effect? I mean this compound: `CN(CCc1ccccc1)Cc1cc(C(=O)N2CCCC2(C)C)no1`
6.18

----------
- test.target: AMP-activated protein kinase, AMPK (Homo sapiens) (UniProt P54646+O43741+P54619+Q9UGJ0+Q9Y478+Q13131+Q9UGI9)
- experimental.details: AMP-dependent Kinase enzyme assay. An in vitro enzyme assay that detects ADP turnover that is directly proportional to AMPK activity. This uses naive AMPK that is activated during the assay with MK-8722
- Type: functional
- Set-up: scale not given: direction of the effect not stated beside the values
- settings: 30 µM
assay.metric: Percent Effect (%)
Give bare numbers, in %.

Check out these entries, answers already filled in.
INSERT INTO results (compound, observed) VALUES
  ('CC(Cn1ccnc1)NC(=O)C1(c2ccc3c(c2)OCCO3)CCCC1 (configuration not stated)', -9.88),
  ('CC1CN(C(=O)NCCCn2cncn2)CCO1 (configuration not stated)', 1.46),
  ('CS(=O)(=O)NCCCN1CCCC1Cc1ccccc1 (configuration not stated)', -5.49),
  ('Cc1nccn1CC1CCCN1S(=O)(=O)Cc1ccon1 (configuration not stated)', -1.52),
  ('CCC(=O)N1CCc2[nH]cnc2C12CCN(C(=O)CCS(C)(=O)=O)CC2', -9.27),
  ('COCCC(=O)N1C[C@@H]2COC[C@]2(COCc2cccnc2)C1', 1.86),
  ('O=C(CCn1ccccc1=O)Nc1ccc(F)c(Cl)c1', -4.38),
  ('COc1ccccc1Oc1ncccc1CNC(=O)C(C)N1CCCC1 (configuration not stated)', -6.43),
  ('CC(C)OCCCNC(=O)CN1CCC(N2CCN(C)C2=O)CC1', -9.11),
  ('N#Cc1ccc(CNCC2CCN(CCO)CC2)cc1', -0.789);

List the reported Percent Effect of each compound below.
1. Cc1cc(C)n(C2CCCN(C(=O)CCNS(C)(=O)=O)C2)n1 (configuration not stated)
2. CC(C)(C)c1ccn(C2(C(=O)O)CCN(c3nccc(N)n3)CC2)n1

[-12.4, 0.972]

----------
- test.target: Tyrosyl-tRNA synthetase, putative (Trypanosoma cruzi (strain CL Brener))
- experimental.details: Trypanosoma cruzi tyrosyl tRNA synthetase (TcYRS) SOP
- Type: functional
- Set-up: scale not given: direction of the effect not stated beside the values
- settings: 30 µM
Kindly state Percent Effect for each of the entries shown.
Numbers only, in %.

INSERT INTO results (compound, observed) VALUES
  ('CN(C)CC(=O)N1CCOCC2(C1)CN(c1ccccc1)C(=O)CO2 (stereo unspecified)', -22.5),
  ('Cn1ncc2c1CCCC2NCc1cnc(-c2ccccc2)nc1 (stereo unspecified)', 18.5),
  ('O=C(c1cnccn1)N1C[C@@H]2CC[C@H](C1)N(C(=O)Cc1ccsc1)C2', 3.7),
  ('O=C(N1CCCC1)N1Cc2nccn2CC(CN2CCCC2)C1 (stereo unspecified)', 10.3),
  ('Cc1ccc(NC(=O)NC(C)c2nc[nH]n2)cc1 (stereo unspecified)', 1.24);

Percent Effect lookup needed for FC1(F)CCN(Cc2ccncc2)CC12CCN(Cc1ccccn1)C2 (stereo unspecified) , thanks.
-5.13

----------
- test.target: Arginase-2, mitochondrial (Homo sapiens) (UniProt P78540)
- Sequence (whole entry): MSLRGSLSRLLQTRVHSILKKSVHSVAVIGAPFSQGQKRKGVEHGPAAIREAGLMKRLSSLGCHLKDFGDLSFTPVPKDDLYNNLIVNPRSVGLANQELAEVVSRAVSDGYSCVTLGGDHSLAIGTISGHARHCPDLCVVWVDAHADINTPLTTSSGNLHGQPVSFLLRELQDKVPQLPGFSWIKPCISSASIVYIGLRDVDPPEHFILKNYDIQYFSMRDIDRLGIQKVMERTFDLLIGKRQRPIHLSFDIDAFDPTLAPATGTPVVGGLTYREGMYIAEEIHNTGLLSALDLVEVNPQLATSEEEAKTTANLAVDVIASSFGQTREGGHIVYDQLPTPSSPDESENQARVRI
- experimental.details: in vitro enzyme assay to detect the production of urea directly proportional to the activity of Arginase II; note: in the data most compounds retested in dose-response had high values
- Assay type: functional
- Set-up: scale not given: direction of the effect not stated beside the values
- settings: 33.3 µM
Kindly state Percent Effect for each of the entries shown.
Numbers only, in %.

As a guide, the following entries are already answered.
INSERT INTO results (compound, observed) VALUES
  ('O=C(CN1CCN(CC(O)C2CC2)CC1)NCc1ccc(F)cc1 (stereo unspecified)', 9.68),
  ('Cc1ccccc1C(=O)Nc1cnn(CC(=O)NC2CCCC2)c1', 1.6),
  ('CCc1nccn1C1CCCN(C(=O)CCCNc2ncccn2)C1 (stereo unspecified)', 2.8);

Give one value of Percent Effect per listed compound.
1. Cc1cn2c(n1)CCC(NC(=O)c1cnc(C)nc1C(C)C)C2 (stereo unspecified)
2. Cc1noc([C@H]2C[C@H]3OCC[C@H]3N(Cc3ccc4c(c3)OCO4)C2)n1
3. Cn1cc(CN2CCC3(CCCN(Cc4ccccn4)C3)CC2)cn1
4. O=C1NCC2(CCCN(CCc3ccccc3)C2)Oc2ccccc21 (stereo unspecified)
5. CNC(=O)c1cnc(/C=C/c2cc(OC)c(OC)c(OC)c2)s1
6. CN1CCN(C(=O)[C@@H]2CCO[C@@H]3CCN(c4ncccn4)C[C@@H]32)CC1

1: 1.9; 2: 6.05; 3: 1.2; 4: 2.55; 5: 21.2; 6: -48.9

List Percent Effect for every entry below, keeping the order given.
1. CCCNC(=O)c1cc2c([nH]c1=O)CC(c1cccs1)CC2=O (stereo unspecified)
2. CC(Cn1ccnc1)NC(=O)C1(c2ccc(F)cc2)CC1 (stereo unspecified)

-0.88
-3.42

----------
Provide the reported Percent Effect of each item.
- test.target: Sialic acid-binding Ig-like lectin 9 (Homo sapiens)
- experimental.details: Hs-Siglec9 ALPHAscreen SOP 20170721
- Parameters: scale not given: direction of the effect not stated beside the values
- settings: 10 µM
Answers are plain numbers, in %.

Quick one: give me Percent Effect for each item below, same order please.
1. CN(C)CCNC(=O)c1cc(-c2cnc(N3CCCC3)nc2)cn1C
2. CN1CCN(C(=O)NC2CC2)Cc2cccnc21
3. CSCc1cccc(S(=O)(=O)N2CCSCC2)c1
4. N#Cc1ccc(OC2CCN(C(=O)c3ccc4c(c3)OCO4)CC2)nc1
5. CCc1ncc2c(n1)CN(Cc1nc(C)c(C)o1)CC2
6. Cc1cc(F)c(S(=O)(=O)NCCCN2CCC(O)CC2)cc1F
7. CCc1nnsc1C(=O)N1CCCN(Cc2nccn2C)CC1
8. COc1ccc(CNCC2CC2)cc1F

[-3.71, 3.38, 1.81, 16.4, -5.63, -1.8, 9.93, 6.66]

----------
- test.target: Tyrosyl-tRNA synthetase, putative (Trypanosoma cruzi (strain CL Brener)) (UniProt Q4DSP6)
- Sequence (Q4DSP6 as listed by the source): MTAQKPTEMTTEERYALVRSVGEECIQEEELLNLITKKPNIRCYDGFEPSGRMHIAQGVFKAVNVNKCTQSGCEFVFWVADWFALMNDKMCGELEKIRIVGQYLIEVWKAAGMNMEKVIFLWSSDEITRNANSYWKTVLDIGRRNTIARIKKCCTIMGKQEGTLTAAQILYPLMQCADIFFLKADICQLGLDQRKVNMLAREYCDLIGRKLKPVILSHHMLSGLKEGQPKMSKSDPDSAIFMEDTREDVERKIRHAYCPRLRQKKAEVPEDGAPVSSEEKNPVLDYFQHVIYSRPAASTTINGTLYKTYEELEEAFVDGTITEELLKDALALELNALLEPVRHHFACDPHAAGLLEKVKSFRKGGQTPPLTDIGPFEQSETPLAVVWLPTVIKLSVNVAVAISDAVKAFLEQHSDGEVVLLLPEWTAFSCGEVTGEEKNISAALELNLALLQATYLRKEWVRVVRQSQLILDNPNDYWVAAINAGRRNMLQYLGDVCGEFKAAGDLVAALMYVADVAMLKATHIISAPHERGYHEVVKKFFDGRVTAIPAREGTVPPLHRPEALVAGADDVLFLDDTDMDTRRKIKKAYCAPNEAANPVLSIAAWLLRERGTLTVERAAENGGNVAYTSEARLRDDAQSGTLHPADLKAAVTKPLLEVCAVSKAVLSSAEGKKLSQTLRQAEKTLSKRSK
- experimental.details: Trypanosoma cruzi tyrosyl tRNA synthetase (TcYRS) SOP
- Assay type: functional
- Parameters: scale not given: direction of the effect not stated beside the values
- settings: 30 µM
The label depends only on Percent Effect: yes (1) if it is at least 10%, no (0) if it is smaller.

INSERT INTO results (molecule, label) VALUES
  ('Cc1cc(C[C@@H]2COC[C@H]2NCc2ccc(Br)s2)on1', 'no (0)'),
  ('CC1=N[C@@]2(CC[C@@H]3CN(Cc4ccccc4F)C[C@@H]32)C(=O)N1CC1CC1', 'no (0)'),
  ('CCn1cc(NC(=O)NCC(C)O)cn1 (configuration not stated)', 'no (0)');

Hi team, for O=C(CCOc1cccc(F)c1)N1CCCC(n2cncn2)C1 (configuration not stated) , is the recorded Percent Effect at or above 10%?
no (0)

Given the entry `O=C(N[C@@H]1CN(c2ncccn2)[C@@H]2CCCO[C@@H]21)c1cnccn1` , answer whether its Percent Effect meets or surpasses 10%.
yes (1)

For this molecule, is measured Percent Effect 10% or higher? CC(COc1ccc(F)cc1F)NC(=O)NCCN1CCOCC1 (configuration not stated)
yes (1)

Determine whether this molecule has Percent Effect no lower than 10%: `O=C(NCC1(CO)CC1)c1cccc2ccccc12`
no (0)

Kindly determine if Percent Effect recorded for CC(NC(=O)NCCNc1ncccn1)c1cccs1 (configuration not stated) is above or exactly 10%.
yes (1)

Could you tell me if the measured Percent Effect of Clc1ccc2cccnc2c1CN1CCCC1Cn1cncn1 (configuration not stated) reaches 10% or more?
no (0)

Does Percent Effect meet or surpass 10% for Cc1nc(CN(C)C2CCCN(c3cccnn3)C2)no1 (configuration not stated) ?
no (0)

Textbook exercise: given the entry COCc1nc(C(=O)N2CCCC2c2ccccc2C)cs1 (configuration not stated) , state whether its Percent Effect is greater than or equal to 10%.
yes (1)

For this molecule, is measured Percent Effect 10% or higher? `CCN1CCN(C2CCN(Cc3nc(-c4ccoc4)no3)CC2)C1=O`
no (0)

Has CNc1cncc(C2CCCN2C(=O)c2ccc3oc(=O)n(C)c3c2)n1 (configuration not stated) a recorded Percent Effect greater than or equal to 10%?
no (0)

Confirm if Percent Effect reported for the molecule COCC1CN(C(=O)C2=CCCCC2)Cc2cnn(CC3CC3)c21 (configuration not stated) is 10% or above.
yes (1)

Please indicate if the recorded Percent Effect for CC(C)c1nccn1C1CCCN(C(=O)c2cnn(C)c2C2CC2)C1 (configuration not stated) meets or exceeds 10%.
yes (1)

Form field: Percent Effect at least 10%? Entry: `CCS(=O)(=O)N1CCC(c2nnc(Cn3cccn3)n2C2CC2)CC1`
no (0)
